TGI for assorted compounds
System: SK-MEL-28 melanoma
Test: NCI tumour cell line growth inhibition, 48 h

Please review the following examples before continuing.
>>> print(df.to_string())
                                   compound  measured_metric  recorded_value
0  Nc1nc(/C=C\c2ccc([N+](=O)[O-])s2)nc(N2CCOCC2)n1              TGI         38.2 µM
1                       N#CCC(=O)N1CCCOCCC1              TGI        > 100 µM
2      O=C1NC(N/N=C/c2cccs2)=N/C1=C\c1ccco1              TGI        > 100 µM
3  O=C(O)CNS(=O)(=O)c1ccc(NC(=O)c2ccccc2[N+](=O)[O-])cc1              TGI        > 100 µM

Data point: O=C1CSC2=NC3=C(CSC/C3=C\c3ccc(Cl)cc3)C(c3ccc(Cl)cc3)N12 (stereo unspecified) ; TGI = 81.9 µM

Record Cn1c(=O)c2[nH]c(CSCc3ccccc3)nc2n(C)c1=O , field TGI: > 100 µM
